# experimentalTarget: T1, human soluble urokinase plasminogen activator receptor (hsuPAR) (human, UniProt Q03405 23-303, limits assumed)
# T1 construct: also called human suPAR; rhuPAR-His
# T1 sequence (Q03405 23-303 limits assumed): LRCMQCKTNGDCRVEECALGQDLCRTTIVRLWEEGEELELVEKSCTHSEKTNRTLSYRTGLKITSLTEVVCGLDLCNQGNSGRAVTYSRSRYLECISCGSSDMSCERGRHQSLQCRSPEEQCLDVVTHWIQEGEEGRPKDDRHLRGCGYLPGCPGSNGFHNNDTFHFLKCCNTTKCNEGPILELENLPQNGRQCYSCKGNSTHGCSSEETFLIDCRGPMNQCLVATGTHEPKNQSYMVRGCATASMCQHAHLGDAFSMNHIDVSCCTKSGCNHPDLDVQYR
# procedureSummary: off-rate screen of scFv clones (kdis), Octet BLI
So I've got a bunch of binders here, and I need their koff values.
Express it in s⁻¹; write the number only.

Query: koff; subject: suPAR_DB04_G06 (scFv, V domains shown, scFv clone from phage display) VH: QVQLVQSGAEVKKPGASVKVSCKASGDTFTSYYVHWVRQAPGQGLEWMGWIDHENGNTIYDQKFQGRVTMTRDTSTSTVYMELSSLRSEDTAVYYCARGYDVDWFVYWGQGTLVTVSS VL: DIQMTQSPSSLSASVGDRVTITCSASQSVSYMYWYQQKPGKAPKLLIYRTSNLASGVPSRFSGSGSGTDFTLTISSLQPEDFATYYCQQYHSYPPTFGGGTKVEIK
0.0027

Try this binder next: suPAR_DB04_H01 (scFv, V domains shown, scFv clone from phage display) VH: QVQLVQSGAEVKKPGASVKVSCKASGYTFIGSYVHWVRQAPGQGLEWMGWIDHENGNTIYDQKFQGRVTMTRDTSTSTVYMELSSLRSEDTAVYYCARGYDVDWFVYWGQGTLVTVSS VL: DIQMTQSPSSLSASVGDRVTITCSARSSVSYMYWYQQKPGKAPKLLIYRTSSLASGVPSRFSGSGSGTDFTLTISSLQPEDFATYYCQQYHSYPPTFGGGTKVEIK
0.00127

Try this binder next: suPAR_DB04_G07 (scFv, V domains shown, scFv clone from phage display) VH: QVQLVQSGAEVKKPGASVKVSCKASGFSFTTYYMHWVRQAPGQGLEWMGWIDPENGNTIYAQKFQGRVTMTRDTSTSTVYMELSSLRSEDTAVYYCARGYDVDWFVYWGQGTLVTVSS VL: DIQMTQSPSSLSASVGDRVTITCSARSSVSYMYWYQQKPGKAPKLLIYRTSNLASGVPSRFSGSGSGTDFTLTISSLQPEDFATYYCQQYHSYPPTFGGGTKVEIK
0.00424

Try this binder next: suPAR_DB04_F10 (scFv, V domains shown, scFv clone from phage display) VH: QVQLVQSGAEVKKPGASVKVSCKASGYTFTDYYMHWVRQAPGQGLEWMGWIDHSGGNTIYAQKFQGRVTMTRDTSTSTVYMELSSLRSEDTAVYYCARGYDVDWFVYWGQGTLVTVSS VL: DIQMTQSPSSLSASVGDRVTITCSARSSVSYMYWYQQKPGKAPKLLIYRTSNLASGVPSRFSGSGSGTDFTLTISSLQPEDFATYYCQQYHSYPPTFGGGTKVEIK
0.00412

Try this binder next: suPAR_DB04_D07 (scFv, V domains shown, scFv clone from phage display) VH: QVQLVQSGAEVKKPGASVKVSCKASGYTFGSYYMHWVRQAPGQGLEWMGWIDHENGNTIYDQKFQGRVTMTRDTSTSTVYMELSSLRSEDTAVYYCARGYDVDWFVYWGQGTLVTVSS VL: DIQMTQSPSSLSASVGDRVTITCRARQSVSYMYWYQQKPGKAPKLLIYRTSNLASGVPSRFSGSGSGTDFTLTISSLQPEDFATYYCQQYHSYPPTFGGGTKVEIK
0.00217

Try this binder next: suPAR_DB04_E02 (scFv, V domains shown, scFv clone from phage display) VH: QVQLVQSGAEVKKPGASVKVSCKASGYTFTSYYMHWVRQAPGQGLEWMGWIDPENGSTIYDQKFQGRVTMTRDTSTSTVYMELSSLRSEDTAVYYCARGYDVDWFVYWGQGTLVTVSS VL: DIQMTQSPSSLSASVGDRVTITCRARSSVSYMYWYQQKPGKAPKLLIYATSNLASGVPSRFSGSGSGTDFTLTISSLQPEDFATYYCQQYHSYPPTFGGGTKVEIK
0.00497

Try this binder next: suPAR_DB04_E12 (scFv, V domains shown, scFv clone from phage display) VH: QVQLVQSGAEVKKPGASVKVSCKASGYTFTTYYMHWVRQAPGQGLEWMGWIDPENGSTIYDQKFQGRVTMTRDTSTSTVYMELSSLRSEDTAVYYCARGYDVDWFVYWGQGTLVTVSS VL: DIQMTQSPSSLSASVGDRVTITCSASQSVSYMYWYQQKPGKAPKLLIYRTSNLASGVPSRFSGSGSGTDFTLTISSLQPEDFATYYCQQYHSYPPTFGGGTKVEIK
0.00336

Try this binder next: suPAR_DB04_F03 (scFv, V domains shown, scFv clone from phage display) VH: QVQLVQSGAEVKKPGASVKVSCKASGYTIKDYYIHWVRQAPGQGLEWMGWIDPRSGDTNYGKNFQGRVTMTRDTSTSTVYMELSSLRSEDTAVYYCARGYDVDWFVYWGQGTLVTVSS VL: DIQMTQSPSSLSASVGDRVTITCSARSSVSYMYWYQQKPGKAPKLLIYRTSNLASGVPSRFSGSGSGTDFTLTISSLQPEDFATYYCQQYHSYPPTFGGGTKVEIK
0.00375

Try this binder next: suPAR_DB04_D10 (scFv, V domains shown, scFv clone from phage display) VH: QVQLVQSGAEVKKPGASVKVSCKASGYTFTSYYMHWVRQAPGQGLEWMGWIDPEGGNTSYDQKFQGRVTMTRDTSTSTVYMELSSLRSEDTAVYYCATGYDVDWFVYWGQGTLVTVSS VL: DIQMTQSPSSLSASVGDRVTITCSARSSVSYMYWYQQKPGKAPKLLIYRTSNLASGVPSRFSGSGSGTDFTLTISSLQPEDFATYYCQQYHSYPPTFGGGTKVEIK
0.005

Try this binder next: suPAR_DB04_D05 (scFv, V domains shown, scFv clone from phage display) VH: QVQLVQSGAEVKKPGASVKVSCKASGYTFTTYYMHWVRQAPGQGLEWVGWIDPHSGGTNYAQKFQGRVTMTRDTSTSTVYMELSSLRSEDTAVYYCARGYDVDWFVYWGQGTLVTVSS VL: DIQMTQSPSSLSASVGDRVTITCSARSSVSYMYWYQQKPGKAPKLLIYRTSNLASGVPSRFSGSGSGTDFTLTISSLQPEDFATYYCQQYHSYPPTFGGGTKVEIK
0.004
